Values were extracted from ChEMBL document CHEMBL1782056.

# PROCEDURE SUMMARY: physchem
# PROTOCOL CONDITIONS: HBSS buffer, pH 6.5
OBSERVABLE: solubility (µM)
Give just the numeric value; µM need not be written.

Look up solubility for this compound: CCOC(=O)c1cnc(N2CCN(C(=O)Nc3ccccc3)CC2)c(Cl)c1
40

Field entry: CCOC(=O)c1cnc(N2CCN(C(=O)Nc3ccccc3)CC2)c(C#N)c1
90

Field entry: CCOC(=O)C1=C(C)NC(C)=C(C(=O)OC)C1c1cccc(Cl)c1Cl (stereo not given) [FELODIPINE]
1

Field entry: C[C@]12CC[C@H]3[C@@H](CCC4=CC(=O)CC[C@@]43C)[C@@H]1CC[C@@H]2O [TESTOSTERONE]
75
